System: Fibroblast
Assay: Multiplex assay against human fibroblast
Format: toxicity, cell-based
Details: 48 h, 10 µM, compound concentration 10 uM, replicate 1
Could you mark each record condition met if its Population Membrane Permeable-Phenotype (%) falls strictly under 20%, and condition not met if it equals or exceeds it?

>>> label_class("CCOCCn1cc(C(=O)Nc2ccc(-n3nc(-c4cccnc4)cc3C(F)(F)F)cn2)ccc1=O")
"condition met"
>>> label_class("COc1cccc([C@@H](C)NCCCc2ccccc2Cl)c1.Cl [TECALCET HYDROCHLORIDE]")
"condition met"
>>> label_class("COc1ncc(-c2ccc3nccc(-c4ccnnc4)c3c2)cc1NS(=O)(=O)c1ccc(F)cc1F")
"condition not met"
>>> label_class("CC[C@H](C)C(=O)O[C@H]1C[C@@H](C)C=C2C=C[C@H](C)[C@H](CC[C@@H]3C[C@@H](O)CC(=O)O3)[C@H]21")
"condition met"
>>> label_class("CN1CCN(CCOc2cc(OC3CCOCC3)c3c(Nc4c(Cl)ccc5c4OCO5)ncnc3c2)CC1")
"condition met"
>>> label_class("Cc1[nH]c(/C=C2\\C(=O)Nc3ccc(S(=O)(=O)N(C)c4cccc(Cl)c4)cc32)c(C)c1C(=O)N1CCN(C)CC1")
"condition met"

Cited source for all entries: ChEMBL document CHEMBL4689842
